What follows is a collection of Toxicity Data Kidney values obtained with Kidney.

{"columns": ["Compound", "System Name", "Toxicity Data Kidney"],
 "data": [
  ["COc1cc2c(cc1OC(=O)Cc1cc(=O)oc3cc(N(C)C)ccc13)CCN[C@]21CS[C@@H]2c3c(OC(C)=O)c(C)c4c(c3[C@H](COC1=O)N1C2[C@H]2c3c(cc(C)c(OC)c3OC(=O)Cc3cc(=O)oc5cc(N(C)C)ccc35)C[C@@H]([C@@H]1O)N2C)OCO4 (stereo partly shown) [Compound 77]", "Kidney", "3.22E-09"],
  ["COc1cc2c(cc1OC(=O)/C=C/c1ccccc1)CCN[C@]21CS[C@@H]2c3c(OC(C)=O)c(C)c4c(c3[C@H](COC1=O)N1C2[C@H]2c3c(cc(C)c(OC)c3O)C[C@@H]([C@@H]1O)N2C)OCO4 (stereo partly shown) [Compound 61]", "Kidney", "5.12E-09"],
  ["COc1cc2c(cc1OC(=O)OC(C)(C)C)CCN[C@]21CS[C@@H]2c3c(OC(=O)OC(C)(C)C)c(C)c4c(c3[C@H](COC1=O)N1C2[C@H]2c3c(cc(C)c(OC)c3O)C[C@@H]([C@@H]1O)N2C)OCO4 (stereo partly shown) [Compound 173]", "Kidney", "7.09E-08"],
  ["C=COC(=O)Oc1cc2c(cc1OC)[C@@]1(CS[C@@H]3c4c(OC(C)=O)c(C)c5c(c4[C@H](COC1=O)N1C3[C@H]3c4c(cc(C)c(OC)c4OC(=O)OC=C)C[C@@H]([C@@H]1O)N3C)OCO5)N(C(=O)OC=C)CC2 (stereo partly shown) [Compound 99]", "Kidney", "2.56E-08"]
]}
